The values you see were collected from the Human Domainome abundance scans (Beltran et al. 2025).

B1: SH3 and PX domain-containing protein 2B, residues 155 to 209; numbered along this chain, A1X283 (parent)
chain: EQYVVVANYQKQESSEISLSVGQVVDIIEKNESGWWFVSTAEEQGWVPATCLEGQ

- Variants of: B1
- MEASUREMENT DESCRIPTION: abundance fitness (aPCA) (normalised: wild type 0, dead -1); higher = more abundant; growth selection in yeast, the domain comes from the species named
- CONDITION INFO: Homo sapiens
Entry flag: t if abundance fitness reaches -0.2; f if it does not.

CHANGES	LABEL CLASS
I28K	t
W46Q	f
A7G	t
P48M	f
G45V	f
S33V	f
W46R	t
A7E	t
E43K	t
Q23D	t
V25S	f
I17G	f
E29F	f
V25K	f
A41W	f
T50R	t
Y3D	t
G54H	f
V47I	t
E29L	t
N31L	t
F37A	t
E13I	t
D26F	f
E16F	f
G54A	t
I28Q	t
D26Q	t
L19Y	f
L19W	f
S15E	t
